Kindly state abundance fitness for each of the entries shown.
B1: Arginine-glutamic acid dipeptide repeats protein, residues 502 to 543; numbered along this chain, Q9P2R6 (parent)
chain: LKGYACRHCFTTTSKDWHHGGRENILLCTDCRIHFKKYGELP

# Variants of: B1
# run_description: abundance fitness (aPCA) (normalised: wild type 0, dead -1); higher = more abundant; growth selection in yeast, the domain comes from the species named
# reported_conditions: Homo sapiens
One number for each entry.

These solved cases illustrate the format of a correct answer.
* H19W | -0.204
* I25G | -0.264
* D16H | -0.501
* K2W | -0.401
* Y4T | -0.074
* I33Q | 0.074
* C28M | -1.31
* T29L | -0.089
* C31D | -0.527
* G20T | -0.292

Each of the following entries comes with a recorded value; kindly state abundance fitness for each.
1. K15M
2. S14A
3. T29P
4. E23S
5. C28R

Key:
[-0.064, -0.228, -0.347, -0.174, -0.921]

Attribution: the Human Domainome abundance scans (Beltran et al. 2025)
